Tested on: 621-102 (TSC2-deficient)
ASSAY NAME: relative viability vs DMSO; higher = less cytotoxic
MEASUREMENT CONTEXT: 0.0001 µM; serum: 10% FBS; 72 h
Structures can show the parent of a compound that is named as a salt.
For each record, write down the corresponding relative viability.
One number for each entry, in %.

>  <COMPOUND>
C#Cc1cccc(Nc2ncnc3cc(OCCOC)c(OCCOC)cc23)c1 [Erlotinib]

>  <SCALE UNIT>
%

>  <relative viability>
107

$$$$
>  <COMPOUND>
Cc1ncc([N+](=O)[O-])n1CC(C)O (stereo not given) [Secnidazole]

>  <SCALE UNIT>
%

>  <relative viability>
109

$$$$
>  <COMPOUND>
Oc1ccc([C@@H]2Oc3ccc(O)cc3[C@@H]3CCC[C@@H]32)cc1

>  <SCALE UNIT>
%

>  <relative viability>
120

$$$$
>  <COMPOUND>
Nc1[nH]cnc2ncnc1-2 [Adenine]

>  <SCALE UNIT>
%

>  <relative viability>
98

$$$$
>  <COMPOUND>
CC[C@@H]1C(=O)N(C)c2cnc(Nc3ccc(C(=O)N[C@H]4CC[C@H](N5CCN(CC6CC6)CC5)CC4)cc3OC)nc2N1C(C)C [BI6727 (Volasertib)]

>  <SCALE UNIT>
%

>  <relative viability>
96.1

$$$$
>  <COMPOUND>
COc1cccc2cc(-c3nc([C@H]4CC[C@H](C(=O)O)CC4)n4ncnc(N)c34)[nH]c12 [OSI-027]

>  <SCALE UNIT>
%

>  <relative viability>
79.6

$$$$
>  <COMPOUND>
CCOc1nc2cccc(C(=O)OC(C)OC(=O)OC3CCCCC3)c2n1Cc1ccc(-c2ccccc2-c2nn[nH]n2)cc1 (stereo not given) [Candesartan cilexetil]

>  <SCALE UNIT>
%

>  <relative viability>
106

$$$$
>  <COMPOUND>
CCCCCCOC(=O)NC(=N)c1ccc(NCc2nc3cc(C(=O)N(CCC(=O)OCC)c4ccccn4)ccc3n2C)cc1 [BIBR-1048]

>  <SCALE UNIT>
%

>  <relative viability>
78.6

$$$$

Fill in relative viability for each of the 6 compounds listed.
1. OCCN(CCO)c1nc(N2CCCCC2)c2nc(N(CCO)CCO)nc(N3CCCCC3)c2n1 [Dipyridamole]
2. CN1CC(=O)N2[C@H](c3ccc4c(c3)OCO4)c3[nH]c4ccccc4c3C[C@@H]2C1=O [Tadalafil (Cialis)]
3. CC(C)n1c(/C=C/C(O)CC(O)CC(=O)O)c(-c2ccc(F)cc2)c2ccccc21 (stereo not given) [Fluvastatin Sodium]
4. CN(C)c1ccc(-c2nc3ncc(Cl)c(N4CCN(CC(=O)Nc5nccs5)CC4)c3[nH]2)cc1
5. Oc1ncnc2[nH]ncc12 [Allopurinol]
6. Cc1ccc(S(=O)(=O)OCC(=O)Nc2ccc(C(=O)O)c(O)c2)cc1 [S31-201]

102
107
102
104
96.2
120

Fill in relative viability for each of the 4 compounds listed.
1. N#CCNC(=O)c1ccc(-c2ccnc(Nc3ccc(N4CCOCC4)cc3)n2)cc1 [Cyt387]
2. CCCCC1=NC2(CCCC2)C(=O)N1Cc1ccc(-c2ccccc2-c2nnn[nH]2)cc1 [Irbesartan (Avapro)]
3. Cc1ccc(NC(=O)c2ccc(CN3CCN(C)CC3)cc2)cc1Nc1nc(-c2cccnc2)cs1 [Masitinib (AB1010)]
4. C=CC(=O)Nc1cccc(Oc2nc(Nc3ccc(N4CCN(C)CC4)cc3OC)ncc2Cl)c1 [WZ4002]

1. 101
2. 103
3. 116
4. 110

Fill in relative viability for each of the 2 compounds listed.
1. OC(CNCC(O)C1CCc2cc(F)ccc2O1)C1CCc2cc(F)ccc2O1 (stereo not given) [Nebivolol HCl]
2. COC1=C2C[C@@H](C)C[C@H](OC)[C@H](O)[C@@H](C)/C=C(\C)[C@H](OC(N)=O)[C@@H](OC)/C=C\C=C(/C)C(=O)NC(=CC1=O)C2=O [Geldanamycin]

[81.7, 90.7]

Fill in relative viability for each of the 2 compounds listed.
1. Nc1ncnc2c1c(-c1cnc3[nH]ccc3c1)nn2C1CCCC1 [PP-121]
2. Cc1cc(NS(=O)(=O)c2ccc(N)cc2)no1 [Sulfamethoxazole]

[102, 105]

---

Tested on: 621-102 (TSC2-deficient)
ASSAY NAME: relative viability vs DMSO; higher = less cytotoxic
MEASUREMENT CONTEXT: 0.1 µM; serum: 10% FBS; 72 h
For each record, write down the corresponding relative viability.
One number for each entry, in %.

Example cases with answers are listed next.
>  <COMPOUND>
Cc1ncc(-c2ccnc(Nc3ccc(S(C)(=O)=O)cc3)n2)n1C(C)C [AZD5438]

>  <SCALE UNIT>
%

>  <relative viability>
99.5

$$$$
>  <COMPOUND>
CC(C)c1nc(CN(C)C(=O)N[C@H](C(=O)N[C@@H](Cc2ccccc2)C[C@H](O)[C@H](Cc2ccccc2)NC(=O)OCc2cncs2)C(C)C)cs1 [Ritonavir]

>  <SCALE UNIT>
%

>  <relative viability>
104

$$$$
>  <COMPOUND>
C[C@H](NC(=O)Cc1cc(F)cc(F)c1)C(=O)N[C@H](C(=O)OC(C)(C)C)c1ccccc1 [DAPT (GSI-IX)]

>  <SCALE UNIT>
%

>  <relative viability>
97.8

$$$$

If you can, please state the reported relative viability value of COc1ccc(S(=O)(=O)N(C(C)=O)c2ccccc2/C=C/c2cc[n+]([O-])cc2)cc1 [HMN-214] . 92.7

---

Test system: UMB1949 (TSC2-deficient);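 note: renal angiomyolipoma cell lines screened in 384-well plates, viability normalized per plate to DMSO-treated cells, each plate carrying 50 nM rapamycin and 1 µM staurosporine controls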
ASSAY NAME: relative viability vs DMSO (fraction); higher = less cytotoxic
MEASUREMENT CONTEXT: 200 nM; serum: 0.1% FBS; 72 h
EXPERIMENTAL READOUT: relative viability
One number for each entry.

Example cases with answers are listed next.
>  <MOLECULE>
c1ccc2c(-c3cnn4cc(-c5ccc(N6CCNCC6)cc5)cnc34)ccnc2c1

>  <relative viability>
0.943

$$$$
>  <MOLECULE>
CC(C)C[C@H](NC(=O)CNC(=O)c1cc(Cl)ccc1Cl)B(O)O

>  <relative viability>
0.00329

$$$$
>  <MOLECULE>
CN(C)CC[C@H](CSc1ccccc1)Nc1ccc(S(=O)(=O)NC(=O)c2ccc(N3CCN(Cc4ccccc4-c4ccc(Cl)cc4)CC3)cc2)cc1[N+](=O)[O-]

>  <relative viability>
0.803

$$$$
>  <MOLECULE>
COCC[n+]1c2c(n(Cc3cnccn3)c1C)C(=O)c1ccccc1C2=O

>  <relative viability>
0.00176

$$$$

Fill in relative viability for each of the 3 molecules listed.
1. CCC[C@H](NC(=O)/C(C#N)=C/c1cccc(Br)n1)c1ccccc1
2. CO[C@H]1C[C@@H]2CC[C@@H](C)[C@@](O)(O2)C(=O)C(=O)N2CCCC[C@H]2C(=O)O[C@H]([C@H](C)C[C@@H]2CC[C@@H](OCCO)[C@H](OC)C2)CC(=O)[C@H](C)/C=C(\C)[C@@H](O)[C@@H](OC)C(=O)[C@H](C)C[C@H](C)/C=C/C=C/C=C/1C [Everolimus(RAD001)]
3. COC(=O)Nc1nc2cc(Sc3ccccc3)ccc2[nH]1

1: 0.0225; 2: 0.781; 3: 0.00543

---

Test system: 621-102 (TSC2-deficient);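 note: immortalized renal angiomyolipoma cells stably carrying empty vector or TSC2, dosed in 384-well plates in DMEM, viability normalized to vehicle-treated wells within each plate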
ASSAY NAME: relative viability vs DMSO; higher = less cytotoxic
MEASUREMENT CONTEXT: 1 µM; serum: 10% FBS; 72 h
Counter-ions that a name gives are not always drawn.
For each record, write down the corresponding relative viability.
Numbers only, in %.

>  <COMPOUND>
COc1ccc(S(=O)(=O)N(C(C)=O)c2ccccc2/C=C/c2cc[n+]([O-])cc2)cc1 [HMN-214]

>  <EXPERIMENTAL READOUT>
relative viability

>  <SCALE UNIT>
%

>  <RECORDED RESULT>
40.4

$$$$
>  <COMPOUND>
O=C1CCc2cc(OCCCCc3nnnn3C3CCCCC3)ccc2N1 [Cilostazol]

>  <EXPERIMENTAL READOUT>
relative viability

>  <SCALE UNIT>
%

>  <RECORDED RESULT>
96.5

$$$$
>  <COMPOUND>
Nc1ccn([C@@H]2O[C@H](CO)[C@@H](O)C2(F)F)c(=O)n1 [Gemcitabine Hydrochloride]

>  <EXPERIMENTAL READOUT>
relative viability

>  <SCALE UNIT>
%

>  <RECORDED RESULT>
44.7

$$$$
>  <COMPOUND>
CC(=O)SCC(Cc1ccccc1)C(=O)NCC(=O)OCc1ccccc1 (stereo unspecified) [Racecadotril]

>  <EXPERIMENTAL READOUT>
relative viability

>  <SCALE UNIT>
%

>  <RECORDED RESULT>
114

$$$$
>  <COMPOUND>
O=C(O)[C@H]1O[C@@H](Oc2cc3oc(-c4ccccc4)cc(=O)c3c(O)c2O)[C@H](O)[C@@H](O)[C@@H]1O [Baicalin]

>  <EXPERIMENTAL READOUT>
relative viability

>  <SCALE UNIT>
%

>  <RECORDED RESULT>
110

$$$$

Now, please, on to the next compound.
If you can, please state the reported relative viability value of OC(CNCC(O)C1CCc2cc(F)ccc2O1)C1CCc2cc(F)ccc2O1 (stereo unspecified) [Nebivolol HCl] . 106

Sourced from the supplement of paper PMC8960247
